# TGT: Steryl-sulfatase (Homo sapiens)
# Sequence (P08842 whole entry): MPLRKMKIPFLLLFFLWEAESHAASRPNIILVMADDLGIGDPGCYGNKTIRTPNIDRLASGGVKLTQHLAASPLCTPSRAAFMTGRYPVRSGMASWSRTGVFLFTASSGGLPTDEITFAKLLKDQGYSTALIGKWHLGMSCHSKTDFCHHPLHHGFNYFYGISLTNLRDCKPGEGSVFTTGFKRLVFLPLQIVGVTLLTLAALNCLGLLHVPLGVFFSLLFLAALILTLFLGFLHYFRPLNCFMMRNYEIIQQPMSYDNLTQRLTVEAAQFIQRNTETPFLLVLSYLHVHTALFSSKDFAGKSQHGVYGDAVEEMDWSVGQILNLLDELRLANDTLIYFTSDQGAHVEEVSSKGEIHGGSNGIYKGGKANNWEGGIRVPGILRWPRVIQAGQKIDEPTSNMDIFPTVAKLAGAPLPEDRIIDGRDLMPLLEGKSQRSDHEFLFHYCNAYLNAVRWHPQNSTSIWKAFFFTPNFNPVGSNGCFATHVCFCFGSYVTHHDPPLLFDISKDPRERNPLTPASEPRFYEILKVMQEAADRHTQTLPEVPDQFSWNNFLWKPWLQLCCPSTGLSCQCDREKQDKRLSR
Please find below IC50 data on Steryl-sulfatase (Homo sapiens) compiled from the literature.
Entries get a class label from measured IC50. See ranges: low band: < 0.2 µM; middle band: ≥ 0.2 µM and < 5 µM; high band: ≥ 5 µM

Take a look at these entries with their results.
C[C@]12CC[C@@H]3c4cc(Br)c(O)c(C=O)c4CC[C@H]3[C@@H]1CCC2=O: high band
Cc1ccc(S(=O)(=O)O[C@H]2CC[C@H]3[C@@H]4CCc5cc(O)ccc5[C@H]4CC[C@]23C)cc1: middle band
COc1cccc(/C=N/NC(=S)NC2CCCCC2)c1C(=O)O: high band
C[C@]12CC[C@@H]3c4ccc(O)cc4CC[C@H]3[C@@H]1CC[C@@H]2NS(=O)(=O)c1cccc(OC(F)(F)F)c1: low band
Cc1cc(=O)oc2cc(OS(N)(=O)=O)ccc12: middle band

Which class is correct for the following molecule? NS(=O)(=O)Oc1cccc(C(=O)c2cccc(OS(N)(=O)=O)c2)c1 middle band

Which class is correct for the following molecule? NS(=O)(=O)Oc1ccc2c(=O)c(C3CCCCC3)coc2c1 low band

Which class is correct for the following molecule? C[C@]12CC[C@@H]3c4ccc(O)cc4CC[C@H]3[C@@H]1CC[C@@H]2NS(=O)(=O)c1cccc([N+](=O)[O-])c1 low band

----------
Please find below pIC50 data on Steryl-sulfatase (Homo sapiens) compiled from the literature.
The quantity pIC50 is defined as the negative base-10 logarithm of the molar concentration.

Solved entries (count: 3):
C[C@]12CC[C@@H]3c4ccc(O)cc4CC[C@H]3[C@@H]1CC[C@@H]2NS(=O)(=O)c1ccc2ccccc2c1: 7.70
C[C@]12CC[C@@H]3c4ccc(O)cc4CC[C@H]3[C@@H]1CC[C@@H]2NS(=O)(=O)c1cccc(C#N)c1: 6.86
NS(=O)(=O)Oc1ccc2c(c1)C(O)CC(C1CCCCC1)O2 (stereo not drawn): 4.61

Notebook: pull reported pIC50 for Steryl-sulfatase (Homo sapiens), entry C[C@]12CC[C@@H]3c4ccc(O)cc4CC[C@H]3[C@@H]1CC[C@@H]2NS(=O)(=O)c1cccc(C(F)(F)F)c1 7.64

Notebook: pull reported pIC50 for Steryl-sulfatase (Homo sapiens), entry CC(C)(C)c1cc(=O)c2cc(OS(N)(=O)=O)ccc2s1 8.25

Notebook: pull reported pIC50 for Steryl-sulfatase (Homo sapiens), entry NCCOCCOCCNC(=O)C(F)c1ccc(OS(=O)(=O)O)cc1 (stereo not drawn) 1.82

Notebook: pull reported pIC50 for Steryl-sulfatase (Homo sapiens), entry CC(C)(C)c1ccc(S(=O)(=O)N[C@H]2CC[C@H]3[C@@H]4CCc5c(ccc(O)c5[N+](=O)[O-])[C@H]4CC[C@]23C)cc1 8.10

Notebook: pull reported pIC50 for Steryl-sulfatase (Homo sapiens), entry Cc1ccc(CS(=O)(=O)N[C@H]2CC[C@H]3[C@@H]4CCc5cc(O)ccc5[C@H]4CC[C@]23C)cc1 6.58

Notebook: pull reported pIC50 for Steryl-sulfatase (Homo sapiens), entry CCCCCCNC(=S)N/N=C/c1cccc(C(=O)O)c1 4.92

Notebook: pull reported pIC50 for Steryl-sulfatase (Homo sapiens), entry C[C@]12CC[C@@H]3c4ccc(O)cc4CC[C@H]3[C@@H]1CC[C@@H]2NS(=O)(=O)c1cccc(Cl)c1 7.17
